Tested on: Streptococcus pneumoniae 1175
Format: cell-based
Conditions: S. pneumoniae 1175 (mefA); microtiter broth dilution
readoutKind: MIC S. pneumo. 1175 (µg/mL)
All answers are understood in µg/mL, so give the number only.

Dear colleague, I am looking for the recorded MIC S. pneumo. 1175 of the following compound: CC[C@H]1OC(=O)[C@H](C)C(=O)[C@H](C)[C@@H](O[C@@H]2O[C@H](C)C[C@H](N(C)C)[C@H]2O)[C@](C)(OC)C[C@@H](C)C(=O)[C@H](C)[C@H]2N(CC3(O)CN(Cc4ccn(-c5cccnc5)n4)C3)C(=O)O[C@]12C [7.13] 1

Entry CCC1OC(=O)C(C)C(=O)C(C)C(OC2OC(C)CC(N(C)C)C2O)C(C)(OC)CC(C)C(=O)C(C)C2N(CC3CCN(C(=O)c4cccc5cccnc45)C3)C(=O)OC12C (centres unmarked) [13.11] has what MIC S. pneumo. 1175? 4

Which MIC S. pneumo. 1175 is listed for CCC1OC(=O)C(C)C(=O)C(C)C(OC2OC(C)CC(N(C)C)C2O)C(C)(OC)CC(C)C(=O)C(C)C2N(CC3CCCN3C(=O)c3cccn(Cc4ccccc4)c3=O)C(=O)OC12C (centres unmarked) [10.36] ? 0.5

###

System: Streptococcus pneumoniae 1175
Type: cell-based
Settings: Streptococcus pneumoniae 1175; microtiter broth dilution
readoutKind: MIC S. pneumo. 1175 (µg/mL)
Output spec: scalar in µg/mL, unitless text.

Tell me the measured MIC S. pneumo. 1175 of CCC1OC(=O)C(C)C(=O)C(C)C(OC2OC(C)CC(N(C)C)C2O)C(C)(OC)CC(C)C(=O)C(C)C2N(CC3CN(C(=O)c4cccc5cccnc45)C3)C(=O)OC12C (centres unmarked) , please. 1

Could you share which MIC S. pneumo. 1175 value was measured for `CC[C@H]1OC(=O)[C@H](C)C(=O)[C@H](C)[C@@H](O[C@@H]2O[C@H](C)C[C@H](N(C)C)[C@H]2O)[C@](C)(OC)C[C@@H](C)C(=O)[C@H](C)[C@H]2N(C3CN([C@H](C)c4ccnc5ncccc45)C3)C(=O)O[C@]12C` ? 0.25

###

Record form. Attribute: MIC H. influenzae 1218. Fill in for each entry.
Test system: Haemophilus influenzae 1218
Assay: MIC, microtiter broth dilution (NCCLS M100-S14), H. influenzae 1218 (susceptible)
Type: cell-based
Settings: Haemophilus influenzae 1218
Report the value in mg/L with no unit label.

May I ask what MIC H. influenzae 1218 has been recorded for CCC1OC(=O)C(C)C(=O)C(C)C(OC2OC(C)CC(N(C)C)C2O)C(C)(OC)CC(C)C(=O)C(C)C2N(C3CN(Cc4c(Cl)cnc5ccccc45)C3)C(=O)OC12C (centres unmarked) ? 1

For the compound shown here, CCC1OC(=O)C(C)C(=O)C(C)C(OC2OC(C)CC(N(C)C)C2O)C(C)(OC)CC(C)C(=O)C(C)C2N(C3CN(S(=O)(=O)c4ccc(-n5ccnc5)c(C)c4)C3)C(=O)OC12C (centres unmarked) , give the reported MIC H. influenzae 1218. 4

Please give the measured MIC H. influenzae 1218 for this compound: CCC1OC(=O)C(C)C(=O)C(C)C(OC2OC(C)CC(N(C)C)C2O)C(C)(OC)CC(C)C(=O)C(C)C2N(C3CN(C(C)c4ccnc5cccnc45)C3)C(=O)OC12C (centres unmarked) [Example 1.37] 1

What MIC H. influenzae 1218 value was documented for this compound, `CC[C@H]1OC(=O)[C@H](C)C(=O)[C@H](C)[C@@H](O[C@@H]2O[C@H](C)C[C@H](N(C)C)[C@H]2O)[C@](C)(OC)C[C@@H](C)C(=O)[C@H](C)[C@H]2N(CC3(C)CN(Cc4ccc5cccnc5c4)C3)C(=O)O[C@]12C` ? 1
